- target_or_system: caspase-4 (Homo sapiens, UniProt P49662)
- Sequence (P49662 81-270 limits assumed): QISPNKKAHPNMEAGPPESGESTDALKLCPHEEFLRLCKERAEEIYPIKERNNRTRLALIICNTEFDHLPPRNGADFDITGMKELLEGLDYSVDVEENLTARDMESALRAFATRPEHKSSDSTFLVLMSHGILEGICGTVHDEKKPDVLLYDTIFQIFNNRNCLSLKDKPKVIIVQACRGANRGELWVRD
- Sequence (P49662 290-377 limits assumed): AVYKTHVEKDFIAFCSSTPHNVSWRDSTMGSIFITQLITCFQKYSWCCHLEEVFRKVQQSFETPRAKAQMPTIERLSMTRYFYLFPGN
pIC50: −log10 of the molar value.
metric: pIC50

1) CCO[C@@H]1OC(=O)C[C@@H]1NC(=O)[C@@H]1CCCN1C(=O)[C@@H](NC(=O)c1ccc(N)c(Cl)c1)C(C)(C)C
4.52

----------
Quick record of IC50 values for caspase-3 (Homo sapiens, UniProt P42574).
Peptide text beside a SMILES is read from it. * marks the point of attachment. Cbz = O=C(OCc1ccccc1)*; CH2F = FC*
metric: IC50 (nM)

1. COC(=O)CC[C@H](NC(=O)[C@H](CC(C)C)NC(=O)OCc1ccccc1)C(=O)N[C@@H](Cc1c[nH]cn1)C(=O)N[C@@H](CC(=O)OC)C(=O)CF [z-LEHD-FMK] (Cbz-LE(OMe)HD(OMe)-CH2F)
1070
2. CC[C@H](C)[C@H](NC(=O)OCc1ccccc1)C(=O)N[C@@H](CCC(=O)OC)C(=O)N[C@H](C(=O)N[C@@H](CC(=O)OC)C(=O)CF)[C@@H](C)O [z-IETD-FMK] (Cbz-IE(OMe)TD(OMe)-CH2F)
1880

----------
# maps each entry to its pIC50
- target_or_system: caspase-6 (Homo sapiens, UniProt P55212)
- Sequence (P55212 24-179 limits assumed): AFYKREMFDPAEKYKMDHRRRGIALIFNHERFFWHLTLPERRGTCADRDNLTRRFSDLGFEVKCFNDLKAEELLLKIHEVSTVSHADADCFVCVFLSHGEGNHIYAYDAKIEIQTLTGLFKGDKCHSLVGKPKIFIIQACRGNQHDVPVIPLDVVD
- Sequence (P55212 194-293 limits assumed): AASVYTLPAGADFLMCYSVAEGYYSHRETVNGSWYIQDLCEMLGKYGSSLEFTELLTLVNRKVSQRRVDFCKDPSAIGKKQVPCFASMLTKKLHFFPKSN
pIC50: −log10 of the molar value. Peptide text beside a SMILES is read from it. * marks the point of attachment. Cbz = O=C(OCc1ccccc1)*; CH2F = FC*
metric: pIC50

1. COC(=O)CC[C@H](NC(=O)[C@H](CC(C)C)NC(=O)OCc1ccccc1)C(=O)N[C@@H](Cc1c[nH]cn1)C(=O)N[C@@H](CC(=O)OC)C(=O)CF [z-LEHD-FMK] (Cbz-LE(OMe)HD(OMe)-CH2F)
6.96
2. CC[C@H](C)[C@H](NC(=O)OCc1ccccc1)C(=O)N[C@@H](CCC(=O)OC)C(=O)N[C@H](C(=O)N[C@@H](CC(=O)OC)C(=O)CF)[C@@H](C)O [z-IETD-FMK] (Cbz-IE(OMe)TD(OMe)-CH2F)
7.22

----------
- target_or_system: caspase-11 (Mus musculus)
- Sequence (P70343 81-266 limits assumed): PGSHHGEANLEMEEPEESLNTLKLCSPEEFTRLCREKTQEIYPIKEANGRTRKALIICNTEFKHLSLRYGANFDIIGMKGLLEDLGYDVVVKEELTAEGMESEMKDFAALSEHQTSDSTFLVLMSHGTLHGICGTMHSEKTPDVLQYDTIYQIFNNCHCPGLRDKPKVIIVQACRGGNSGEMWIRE
- Sequence (P70343 286-373 limits assumed): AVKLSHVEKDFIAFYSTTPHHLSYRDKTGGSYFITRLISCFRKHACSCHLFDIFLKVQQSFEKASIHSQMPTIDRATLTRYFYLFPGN
metric: IC50 (µM)

1) CCO[C@@H]1OC(=O)C[C@@H]1NC(=O)[C@@H]1CCCN1C(=O)[C@@H](NC(=O)c1ccc(N)c(Cl)c1)C(C)(C)C [VX-765]
81

----------
- target_or_system: caspase-5 (Homo sapiens, UniProt P51878)
- Sequence (P51878 137-327 limits assumed): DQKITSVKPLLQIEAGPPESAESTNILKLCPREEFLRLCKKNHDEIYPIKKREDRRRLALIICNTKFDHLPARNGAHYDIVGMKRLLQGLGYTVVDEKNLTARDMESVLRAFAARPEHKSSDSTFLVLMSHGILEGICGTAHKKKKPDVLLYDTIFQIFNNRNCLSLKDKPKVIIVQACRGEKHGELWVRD
- Sequence (P51878 347-434 limits assumed): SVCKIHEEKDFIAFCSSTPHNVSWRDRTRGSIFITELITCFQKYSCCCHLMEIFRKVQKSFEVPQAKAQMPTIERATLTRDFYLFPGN
Peptide text beside a SMILES is read from it. * marks the point of attachment. Cbz = O=C(OCc1ccccc1)*; CH2F = FC*
# maps each entry to its IC50
metric: IC50 (µM)

1. CCO[C@@H]1OC(=O)C[C@@H]1NC(=O)[C@@H]1CCCN1C(=O)[C@@H](NC(=O)c1ccc(N)c(Cl)c1)C(C)(C)C [VX-765]
19.5
2. CC[C@H](C)[C@H](NC(=O)OCc1ccccc1)C(=O)N[C@@H](CCC(=O)OC)C(=O)N[C@H](C(=O)N[C@@H](CC(=O)OC)C(=O)CF)[C@@H](C)O [z-IETD-FMK] (Cbz-IE(OMe)TD(OMe)-CH2F)
19.9
3. COC(=O)CC[C@H](NC(=O)[C@H](CC(C)C)NC(=O)OCc1ccccc1)C(=O)N[C@@H](Cc1c[nH]cn1)C(=O)N[C@@H](CC(=O)OC)C(=O)CF [z-LEHD-FMK] (Cbz-LE(OMe)HD(OMe)-CH2F)
2.31
